Molecular target: T1, recombinant human calcitonin receptor (human, UniProt P30988)
T1 sequence: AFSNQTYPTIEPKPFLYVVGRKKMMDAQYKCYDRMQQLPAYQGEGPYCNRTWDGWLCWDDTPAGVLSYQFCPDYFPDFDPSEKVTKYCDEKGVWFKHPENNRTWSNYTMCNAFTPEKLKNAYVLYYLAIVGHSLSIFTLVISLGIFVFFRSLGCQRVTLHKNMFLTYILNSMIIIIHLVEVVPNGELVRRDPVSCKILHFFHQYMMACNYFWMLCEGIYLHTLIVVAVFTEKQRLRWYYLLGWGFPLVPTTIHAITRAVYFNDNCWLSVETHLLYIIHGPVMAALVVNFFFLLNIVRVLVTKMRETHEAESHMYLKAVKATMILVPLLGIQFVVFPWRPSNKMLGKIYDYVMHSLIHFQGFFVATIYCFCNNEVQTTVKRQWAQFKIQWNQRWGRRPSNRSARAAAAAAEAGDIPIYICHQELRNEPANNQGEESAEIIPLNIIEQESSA
Experiment: cell-based or functional assay
Bridge positions count the residues as written; N and C are the ends.
Reported % SCT EC50 (CRE-linked luciferase induction) values are given for each entry in this list.
Give just the number in % SCT EC50; leave the unit off.

INSERT INTO assay_data (binder, resultnumber) VALUES
  ('CSNLSTCVLGKLSQELHKLQTYPRTNTGSGTP (N-terminal amino group acylated with DL-pipecolinic acid (amide linkage); C-terminal amide; disulfide Cys1-Cys7) [DL-pipecolinic acid modified salmon calcitonin]', 230),
  ('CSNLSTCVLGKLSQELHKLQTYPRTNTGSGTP (N-terminal amino group acylated with isonipecotic acid (amide linkage); C-terminal amide; disulfide Cys1-Cys7) [isonipecotic acid modified salmon calcitonin]', 146),
  ('{picolinic acid}-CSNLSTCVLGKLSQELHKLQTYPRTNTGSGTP-NH2 (disulfide 1-7) [Pycolinyl-modified Calcitonin]', 140);

Turning now to a further binder:
Prompt: If you can, please state the reported % SCT EC50 (CRE-linked luciferase induction) value of {nipecotic acid}-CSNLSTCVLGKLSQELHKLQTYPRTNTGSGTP-NH2 (disulfide 1-7) [nipecotic acid modified salmon calcitonin] .
Response: 243
